Reference source: ChEMBL document CHEMBL4610114

target: Tyrosine-protein kinase JAK1 (Homo sapiens)
Overview of reported IC50 across a group of molecules:
All answers are understood in nM, so give the number only.

Field: example entries. Status: answers known.
{"columns": ["MOLECULE", "TGT", "IC50, nM"],
 "data": [
  ["CCc1[nH]nc2[nH]c(=O)cc(C3CCCCC3)c12", "Tyrosine-protein kinase JAK1 (Homo sapiens)", 460],
  ["Cc1[nH]nc2[nH]c(=O)cc([C@H]3CC[C@H](CCC#N)CC3)c12", "Tyrosine-protein kinase JAK1 (Homo sapiens)", 32],
  ["Cc1cc(=O)[nH]c2n[nH]c(C)c12", "Tyrosine-protein kinase JAK1 (Homo sapiens)", 30000]
]}

Under Tyrosine-protein kinase JAK1 (Homo sapiens): IC50 value of Cc1[nH]nc2[nH]c(=O)cc([C@H]3CC[C@H](NC(=O)C4CC4)CC3)c12 ?
220

Under Tyrosine-protein kinase JAK1 (Homo sapiens): IC50 value of Cc1[nH]nc2[nH]c(=O)cc([C@H]3CC[C@H](CC(=O)N4CC(Cc5ccccc5)C4)CC3)c12 ?
3

Under Tyrosine-protein kinase JAK1 (Homo sapiens): IC50 value of Cc1[nH]nc2[nH]c(=O)cc([C@H]3CC[C@H](C#N)CC3)c12 ?
730

Under Tyrosine-protein kinase JAK1 (Homo sapiens): IC50 value of Cc1[nH]nc2[nH]c(=O)cc([C@H]3CC[C@H](NC(=O)C4CCCC4)CC3)c12 ?
110

Under Tyrosine-protein kinase JAK1 (Homo sapiens): IC50 value of Cc1[nH]nc2[nH]c(=O)c(CCO)c(C3CCCCC3)c12 ?
490

----------
target: Tyrosine-protein kinase JAK1 (Homo sapiens, UniProt P23458)
Sequence (P23458 whole entry): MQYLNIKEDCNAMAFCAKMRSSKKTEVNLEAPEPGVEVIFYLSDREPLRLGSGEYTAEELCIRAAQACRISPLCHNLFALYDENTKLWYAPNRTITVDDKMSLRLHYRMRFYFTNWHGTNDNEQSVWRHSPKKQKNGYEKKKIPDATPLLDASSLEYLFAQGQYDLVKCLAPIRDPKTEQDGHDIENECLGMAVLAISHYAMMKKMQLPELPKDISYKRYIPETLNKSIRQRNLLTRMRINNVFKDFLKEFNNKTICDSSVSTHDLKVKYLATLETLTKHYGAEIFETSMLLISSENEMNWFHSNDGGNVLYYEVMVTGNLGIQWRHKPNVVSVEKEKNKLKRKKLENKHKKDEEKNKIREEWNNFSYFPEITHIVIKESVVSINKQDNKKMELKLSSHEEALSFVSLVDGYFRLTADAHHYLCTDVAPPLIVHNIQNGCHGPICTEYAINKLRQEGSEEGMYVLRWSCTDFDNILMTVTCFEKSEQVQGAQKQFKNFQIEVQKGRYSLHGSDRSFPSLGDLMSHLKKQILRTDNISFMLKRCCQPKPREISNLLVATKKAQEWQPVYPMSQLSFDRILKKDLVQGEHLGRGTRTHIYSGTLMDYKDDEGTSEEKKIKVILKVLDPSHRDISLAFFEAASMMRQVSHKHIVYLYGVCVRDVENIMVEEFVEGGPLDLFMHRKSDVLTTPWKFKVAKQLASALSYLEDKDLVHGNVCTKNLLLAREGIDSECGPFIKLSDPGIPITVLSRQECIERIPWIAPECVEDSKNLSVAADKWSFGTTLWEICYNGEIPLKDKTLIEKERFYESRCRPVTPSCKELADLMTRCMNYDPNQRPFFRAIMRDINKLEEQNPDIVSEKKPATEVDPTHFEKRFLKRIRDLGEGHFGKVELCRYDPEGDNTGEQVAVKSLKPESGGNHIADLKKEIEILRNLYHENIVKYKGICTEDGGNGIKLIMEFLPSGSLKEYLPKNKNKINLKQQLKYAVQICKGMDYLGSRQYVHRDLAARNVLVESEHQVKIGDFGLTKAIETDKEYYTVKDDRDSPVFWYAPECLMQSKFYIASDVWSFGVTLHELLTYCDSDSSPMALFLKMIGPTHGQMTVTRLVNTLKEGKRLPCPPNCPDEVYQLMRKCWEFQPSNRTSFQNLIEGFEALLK
Overview of reported log10 IC50 across a group of compounds:
All values: log10 IC50 [µM].

{"columns": ["COMPOUND", "MEASURED_VALUE"],
 "data": [
  ["Cc1[nH]nc2[nH]c(=O)cc(C3CCCCC3)c12", 0.57],
  ["Cc1[nH]nc2[nH]c(=O)cc([C@H]3CC[C@H](CC(=O)N4CC(Cc5ccccc5)C4)CC3)c12", -0.60]
]}

Under Tyrosine-protein kinase JAK1 (Homo sapiens, UniProt P23458): log10 IC50 value of Cc1[nH]nc2[nH]c(=O)cc([C@H]3C[C@H]4CC[C@@H]3C4)c12 (racemic) ?
-0.07

Under Tyrosine-protein kinase JAK1 (Homo sapiens, UniProt P23458): log10 IC50 value of O=c1cc(C2CCCCC2)c2c(C3CC3)[nH]nc2[nH]1 ?
0.26

Under Tyrosine-protein kinase JAK1 (Homo sapiens, UniProt P23458): log10 IC50 value of Cc1[nH]nc2[nH]c(=O)cc([C@H]3CC[C@H](CC#N)CC3)c12 ?
0.08

----------
test: in vitro; conditions: rat, liver microsomes
Description: Apparent intrinsic clearance in rat liver microsomes
VALUE_KIND: CLint scaled

What CLint scaled value was documented for this compound, Cc1[nH]nc2[nH]c(=O)cc([C@H]3C[C@H]4C[C@@H]3C[C@@H]4CC#N)c12 ?
< 0.9 L/h/kg

----------
Overview of reported CLint scaled across a group of compounds:
assay: in vitro; settings: human, liver microsomes
Description: Apparent intrinsic clearance in human liver microsomes

{"columns": ["COMPOUND", "VALUE_KIND", "MEASURED_VALUE"],
 "data": [
  ["Cc1[nH]nc2[nH]c(=O)cc([C@H]3CC[C@H](CC(=O)N4CCC(c5ccccc5)C4)CC3)c12 (mixture of isomers)", "CLint scaled", "75 mL/min/kg"],
  ["Cc1[nH]nc2[nH]c(=O)cc([C@H]3CC[C@H](CC(=O)N4CCC(C)(C)CC4)CC3)c12", "CLint scaled", "70 mL/min/kg"]
]}

What CLint scaled value was documented for this compound, Cc1[nH]nc2[nH]c(=O)cc([C@H]3CC[C@H](CC(=O)N4CC(Cc5ccccc5)C4)CC3)c12 ?
87 mL/min/kg

What CLint scaled value was documented for this compound, Cc1[nH]nc2[nH]c(=O)cc([C@H]3CC[C@H](CC(=O)N4CC(C#N)C4)CC3)c12 ?
< 8 mL/min/kg

What CLint scaled value was documented for this compound, Cc1[nH]nc2[nH]c(=O)cc([C@H]3CC[C@H](CC(=O)N4CCC(C#N)C4)CC3)c12 (mixture of isomers) ?
< 8 mL/min/kg

What CLint scaled value was documented for this compound, Cc1[nH]nc2[nH]c(=O)cc([C@H]3C[C@H]4C[C@@H]3C[C@H]4CC#N)c12 ?
< 8 mL/min/kg

What CLint scaled value was documented for this compound, Cc1[nH]nc2[nH]c(=O)cc([C@H]3C[C@H]4C[C@@H]3C[C@@H]4CC#N)c12 ?
< 8 mL/min/kg

What CLint scaled value was documented for this compound, Cc1[nH]nc2[nH]c(=O)cc([C@@H]3C[C@@H]4C[C@H]3C[C@@H]4CC#N)c12 ?
< 8 mL/min/kg

----------
target: Tyrosine-protein kinase JAK2 (Homo sapiens, UniProt O60674)
Sequence (O60674 whole entry): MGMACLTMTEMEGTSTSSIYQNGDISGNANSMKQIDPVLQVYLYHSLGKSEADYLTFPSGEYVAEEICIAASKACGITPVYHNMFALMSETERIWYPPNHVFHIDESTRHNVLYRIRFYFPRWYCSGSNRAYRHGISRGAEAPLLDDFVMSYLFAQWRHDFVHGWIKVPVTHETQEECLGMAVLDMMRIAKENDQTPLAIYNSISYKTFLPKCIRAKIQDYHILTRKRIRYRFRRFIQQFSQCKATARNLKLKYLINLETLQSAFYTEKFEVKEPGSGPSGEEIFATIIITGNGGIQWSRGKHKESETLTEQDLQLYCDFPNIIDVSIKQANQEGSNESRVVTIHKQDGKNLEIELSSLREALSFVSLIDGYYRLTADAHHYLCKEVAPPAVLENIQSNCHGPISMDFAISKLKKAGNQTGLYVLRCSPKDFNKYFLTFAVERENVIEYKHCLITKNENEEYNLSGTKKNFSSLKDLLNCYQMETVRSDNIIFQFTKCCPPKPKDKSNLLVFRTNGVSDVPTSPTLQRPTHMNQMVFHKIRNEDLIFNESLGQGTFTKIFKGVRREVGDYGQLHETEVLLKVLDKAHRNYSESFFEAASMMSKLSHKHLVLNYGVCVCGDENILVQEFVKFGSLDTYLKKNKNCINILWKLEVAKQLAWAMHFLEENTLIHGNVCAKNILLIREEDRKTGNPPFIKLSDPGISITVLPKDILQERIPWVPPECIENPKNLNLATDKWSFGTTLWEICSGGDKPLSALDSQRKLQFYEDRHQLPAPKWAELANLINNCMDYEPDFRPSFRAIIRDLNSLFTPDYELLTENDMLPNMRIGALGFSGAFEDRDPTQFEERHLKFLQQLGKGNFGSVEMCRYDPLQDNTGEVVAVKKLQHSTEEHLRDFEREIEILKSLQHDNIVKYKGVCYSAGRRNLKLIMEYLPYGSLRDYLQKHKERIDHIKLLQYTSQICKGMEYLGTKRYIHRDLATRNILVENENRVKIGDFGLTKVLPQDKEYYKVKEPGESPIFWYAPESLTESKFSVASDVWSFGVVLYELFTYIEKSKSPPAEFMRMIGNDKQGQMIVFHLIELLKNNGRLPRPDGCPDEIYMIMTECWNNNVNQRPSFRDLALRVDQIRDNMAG
Overview of reported IC50 across a group of compounds:

{"columns": ["SMILES_DATA", "IC50"],
 "data": [
  ["Cc1[nH]nc2[nH]c(=O)cc([C@@H]3C[C@@H]4C[C@H]3C[C@H]4CC#N)c12", "15 µM"],
  ["Cc1[nH]nc2[nH]c(=O)cc(C3CCCCC3)c12", "> 40 µM"],
  ["Cc1[nH]nc2[nH]c(=O)c(C#N)c(C3CCCCC3)c12", "> 40 µM"],
  ["Cc1[nH]nc2[nH]c(=O)cc([C@H]3CC[C@H](OC(=O)[C@@H]4CC4(F)F)CC3)c12", "> 25 µM"],
  ["Cc1[nH]nc2[nH]c(=O)cc(C3CCCC3)c12", "> 40 µM"],
  ["Cc1[nH]nc2[nH]c(=O)cc([C@H]3CC[C@H](NC(=O)[C@H]4CC4(F)F)CC3)c12", "> 40 µM"],
  ["Cc1[nH]nc2[nH]c(=O)cc([C@H]3CC[C@H](CC#N)CC3)c12", "> 40 µM"],
  ["Cc1[nH]nc2[nH]c(=O)cc([C@H]3CC[C@H](CCC#N)CC3)c12", "13 µM"]
]}

What IC50 value was documented for this compound, Cc1[nH]nc2[nH]c(=O)cc([C@H]3CC[C@H](NC(=O)C4CCCC4)CC3)c12 ?
> 30 µM

What IC50 value was documented for this compound, Cc1[nH]nc2[nH]c(=O)cc([C@@H]3C[C@@H]4C[C@H]3C[C@@H]4CC#N)c12 ?
24 µM

What IC50 value was documented for this compound, Cc1[nH]nc2[nH]c(=O)cc([C@H]3CC[C@H](NC(=O)C4CC4)CC3)c12 ?
> 14 µM

----------
assay: physchem; conditions: PBS buffer, pH 7.4
Description: Aqueous solubility in PBS buffer at pH 7.4 by HPLC analysis
Everything with solubility lower than 30 µM is no; everything else, including exactly 30 µM, is yes.

Some solved entries appear below for comparison.
{"columns": ["MOLECULE", "LABEL_VALUE"],
 "data": [
  ["Cc1[nH]nc2[nH]c(=O)cc([C@H]3CC[C@H](O)CC3)c12", "yes"],
  ["Cc1[nH]nc2[nH]c(=O)cc([C@H]3CCCC[C@H]3C)c12 (racemic)", "no"],
  ["Cc1[nH]nc2[nH]c(=O)cc([C@H]3C[C@H]4C[C@@H]3C[C@@H]4CC#N)c12", "yes"],
  ["Cc1[nH]nc2[nH]c(=O)cc(C3CCCCC3)c12", "no"],
  ["Cc1[nH]nc2[nH]c(=O)c(CO)c(C3CCCCC3)c12", "yes"],
  ["Cc1[nH]nc2[nH]c(=O)cc([C@H]3CC[C@H](CC(=O)N4CCC(C#N)C4)CC3)c12 (mixture of isomers)", "yes"],
  ["Cc1[nH]nc2[nH]c(=O)cc([C@H]3CC[C@H](CC(=O)N4CC(Cc5ccccc5)C4)CC3)c12", "no"],
  ["Cc1[nH]nc2[nH]c(=O)cc([C@H]3CC[C@H](OC(=O)[C@@H]4CC4(F)F)CC3)c12", "no"]
]}

Can Cc1[nH]nc2[nH]c(=O)cc([C@H]3CC[C@H](CC(=O)N4CC(C#N)C4)CC3)c12 be said to have solubility at or above 30 µM?
yes

Can Cc1[nH]nc2[nH]c(=O)cc(CC3CCC3)c12 be said to have solubility at or above 30 µM?
no

Can Cc1[nH]nc2[nH]c(=O)cc([C@H]3CC[C@H](NC(=O)C4CC4)CC3)c12 be said to have solubility at or above 30 µM?
no

Can Cc1[nH]nc2[nH]c(=O)cc([C@H]3CC[C@H](CC#N)CC3)c12 be said to have solubility at or above 30 µM?
yes

Can Cc1[nH]nc2[nH]c(=O)cc([C@H]3C[C@H]4C[C@@H]3C[C@H]4CC#N)c12 be said to have solubility at or above 30 µM?
yes

Can Cc1[nH]nc2[nH]c(=O)cc([C@H]3C[C@H]4CC[C@@H]3C4)c12 (racemic) be said to have solubility at or above 30 µM?
yes

Can Cc1[nH]nc2[nH]c(=O)cc(C3CCCC3)c12 be said to have solubility at or above 30 µM?
yes

Can Cc1[nH]nc2[nH]c(=O)cc([C@@H]3C[C@@H]4C[C@H]3C[C@@H]4CC#N)c12 be said to have solubility at or above 30 µM?
yes

Can Cc1[nH]nc2[nH]c(=O)cc([C@H]3CC[C@H](CCC#N)CC3)c12 be said to have solubility at or above 30 µM?
no

Can Cc1[nH]nc2[nH]c(=O)c(CCO)c(C3CCCCC3)c12 be said to have solubility at or above 30 µM?
no

Can Cc1[nH]nc2[nH]c(=O)cc(-c3ccccc3)c12 be said to have solubility at or above 30 µM?
yes

Can Cc1[nH]nc2[nH]c(=O)cc([C@@H]3C[C@H]4CC[C@@H]3C4)c12 (racemic) be said to have solubility at or above 30 µM?
yes
